Measured values drawn from patent EP0558321A1 for this set.

What follows is a record of cytotoxicity for GMK cells.
Where a name gives a salt, the structure may show the parent alone.

molecule: OC(c1ccc2ccccc2c1)(C1C2CC3CC(C2)CC1C3)C12CCCN1CCC2 (centres unmarked) [Prep. Ex. 9]
cytotoxicity: 2.17 (-)
//
molecule: Cc1ccccc1C(O)(C1C2CC3CC(C2)CC1C3)C12CCCN1CCC2 (centres unmarked) [Prep. Ex. 25, hydrochloride]
cytotoxicity: >3.00 (+)
//
molecule: COc1ccc(C(O)(C2C3CC4CC(C3)CC2C4)C23CCCN2CCC3)cc1 (centres unmarked) [Prep. Ex. 15, hydrochloride]
cytotoxicity: 0.67 (-)
//
molecule: OC(c1ccc(-c2ccccc2)cc1)(C1C2CC3CC(C2)CC1C3)C12CCCN1CCC2 (centres unmarked) [Prep. Ex. 29, hydrochloride]
cytotoxicity: >3.17 (+)
//
molecule: OC(c1ccc(C(F)(F)F)cc1)(C1C2CC3CC(C2)CC1C3)C12CCCN1CCC2 (centres unmarked) [Prep. Ex. 17, hydrochloride]
cytotoxicity: 0.33 (-)
//
molecule: COc1ccccc1C(O)(C1C2CC3CC(C2)CC1C3)C12CCCN1CCC2 (centres unmarked) [Prep. Ex. 23, hydrochloride]
cytotoxicity: 0.17 (+)
//
molecule: CC1(c2ccc(C(O)(C3C4CC5CC(C4)CC3C5)C34CCCN3CCC4)cc2)OCCS1 (centres unmarked) [Prep. Ex. 30]
cytotoxicity: >3.17 (+)
//
molecule: CC(=O)c1ccc(C(O)(C2C3CC4CC(C3)CC2C4)C23CCCN2CCC3)cc1 (centres unmarked) [Prep. Ex. 32, hydrochloride]
cytotoxicity: 0.33 (+)

---

Test system: influenza virus (A/PR/8 strain)
Test: microbe, parasite or virus in culture
Type: cell-based
Settings: unidentified influenza virus, PR/8, MDCK, read-out: Antiviral Activitiy (ΔTCID₅₀)(log₁₀)
Structures can show the parent of a compound that is named as a salt.
Reported log reduction at 20 µg/mL values for a set of molecules
readout_type: log reduction at 20 µg/mL

molecule: COc1cccc(C(O)(C2C3CC4CC(C3)CC2C4)C23CCCN2CCC3)c1 (stereo not shown) [Prep. Ex. 19, hydrochloride]
readout_type: log reduction at 20 µg/mL
bound_type: >
recorded_result: 3.17

molecule: OC(CCN1CCCCC1)(c1ccccc1)C1C2CC3C(C2)C31 (stereo not shown) [Prep. Ex. 1, hydrochloride]
readout_type: log reduction at 20 µg/mL
bound_type: >
recorded_result: 3.17

molecule: OC(c1ccc(C(F)(F)F)cc1)(C1C2CC3CC(C2)CC1C3)C12CCCN1CCC2 (stereo not shown) [Prep. Ex. 17, hydrochloride]
readout_type: log reduction at 20 µg/mL
bound_type: =
recorded_result: 0.33

molecule: OC(c1ccccc1)(C1C2CC3CC(C2)CC1C3)C12CCCN1CCC2 (stereo not shown)
readout_type: log reduction at 20 µg/mL
bound_type: >
recorded_result: 3.5

molecule: Cc1ccc(C(O)(C2C3CC4CC(C3)CC2C4)C23CCCN2CCC3)cc1 (stereo not shown) [Prep. Ex. 27, hydrochloride]
readout_type: log reduction at 20 µg/mL
bound_type: =
recorded_result: 2.17

molecule: COc1ccc(C(O)(C2C3CC4CC(C3)CC2C4)C23CCCN2CCC3)cc1 (stereo not shown) [Prep. Ex. 15, hydrochloride]
readout_type: log reduction at 20 µg/mL
bound_type: >
recorded_result: 3.5

molecule: CC(=O)c1ccc(C(O)(C2C3CC4CC(C3)CC2C4)C23CCCN2CCC3)cc1 (stereo not shown) [Prep. Ex. 32, hydrochloride]
readout_type: log reduction at 20 µg/mL
bound_type: =
recorded_result: 1.16
